Biological target: T1, RPA32C, RPA32(172−270) (human, UniProt P15927 172-270)
T1 construct: Used 15N-labelled or unlabelled in NMR; unlabelled in ITC; also called RPA32C domain; source: E. coli BL21(DE3), purified (IMAC, TEV cleavage, second IMAC, Superdex 75); not shown: His6, N-terminal, cleaved
T1 sequence (P15927 172-270): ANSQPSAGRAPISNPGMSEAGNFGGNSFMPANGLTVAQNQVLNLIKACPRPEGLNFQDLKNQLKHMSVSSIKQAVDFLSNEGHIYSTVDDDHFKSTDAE
Test: NMR titration; 2D lineshape analysis (TITAN v1.6) of 1H-15N HSQC titrations of 50 μM 15N RSM with RPA32C (up to 16× excess) and dsDNA (up to 4× excess) and their competition; four titrations, 24 spectra, 16 residues fitted globally to a competitive binding model
Conditions: both partners purified
PARAMETER: pKd
One number for each entry, as −log10 of the molar value.

Look up pKd for this binder: HDRGNYVRLNMKQKHYVRGRALRSRLLRKQAWKQKWRKKGE (domain or fragment, human, UniProt O94761 348-388, looked up, H. sapiens RECQ4 residues 348-388 (RSM), cloned in pET-M11; Used 15N-labelled or unlabelled in NMR; unlabelled in ITC; source: E. coli BL21(DE3), purified (IMAC, TEV cleavage, Mono S, Superdex 75); not shown: His6, N-terminal, cleaved) [RECQ4-specific motif (RSM), RECQ4(348–388)]
3.93
